For each entry below, report its relative viability value.
# Test system: HCC-15
# protocol_summary: relative viability (nuclei count vs DMSO), 5 days (fraction); higher = more cells survive
# condition: first compound 0.2 µM
Please reply with the value in numeric form only.

QUERY: Please provide the recorded relative viability for Cc1csc(=NC2CCCCC2)n1/N=C/c1ccc(O)c(O)c1O [MIM1] + CC(=O)Nc1cccc(-n2c(=O)n(C3CC3)c(=O)c3c(Nc4ccc(I)cc4F)n(C)c(=O)c(C)c32)c1 [Trametinib] (partner 0.02 µM) , tested on HCC-15.
RESULT: 0.363

QUERY: Next record, please: CN1CCN(CCOc2cc(OC3CCOCC3)c3c(Nc4c(Cl)ccc5c4OCO5)ncnc3c2)CC1 [Saracatinib] + COc1cc2c(Oc3ccc(NC(=O)C4(C(=O)Nc5ccc(F)cc5)CC4)cc3F)ccnc2cc1OCCCN1CCOCC1 [Foretinib] (partner 0.25 µM)
RESULT: 0.975

QUERY: Same again, this time with CCNC(=O)c1noc(-c2cc(C(C)C)c(O)cc2O)c1-c1ccc(CN2CCOCC2)cc1 [Luminespib] + CC(=O)Nc1cccc(-n2c(=O)n(C3CC3)c(=O)c3c(Nc4ccc(I)cc4F)n(C)c(=O)c(C)c32)c1 [Trametinib] (partner 0.02 µM)
RESULT: 0.13

QUERY: Entry Cc1csc(=NC2CCCCC2)n1/N=C/c1ccc(O)c(O)c1O [MIM1] + Cc1nc(NC(=O)N2CCC[C@H]2C(N)=O)sc1-c1ccnc(C(C)(C)C(F)(F)F)c1 [Alpelisib] (partner 2 µM) please
RESULT: 0.989

QUERY: Next: Cc1csc(=NC2CCCCC2)n1/N=C/c1ccc(O)c(O)c1O [MIM1] + COc1cc2c(Oc3ccc(NC(=O)C4(C(=O)Nc5ccc(F)cc5)CC4)cc3F)ccnc2cc1OCCCN1CCOCC1 [Foretinib] (partner 0.25 µM)
RESULT: 1.09

QUERY: Also CN1CCN(CCOc2cc(OC3CCOCC3)c3c(Nc4c(Cl)ccc5c4OCO5)ncnc3c2)CC1 [Saracatinib] + O=C(CCCCCCC(=O)Nc1ccccc1)NO [Vorinostat] (partner 1 µM) ?
RESULT: 0.859

QUERY: What do we get for CN1CCN(CCOc2cc(OC3CCOCC3)c3c(Nc4c(Cl)ccc5c4OCO5)ncnc3c2)CC1 [Saracatinib] + Nc1ncn([C@H]2C[C@H](O)[C@@H](CO)O2)c(=O)n1 [Decitabine] (partner 2 µM) ?
RESULT: 0.62

QUERY: Param item: Cc1csc(=NC2CCCCC2)n1/N=C/c1ccc(O)c(O)c1O [MIM1] + Cc1nc(Nc2ncc(C(=O)Nc3c(C)cccc3Cl)s2)cc(N2CCN(CCO)CC2)n1 [Dasatinib] (partner 0.075 µM)
RESULT: 0.635

QUERY: Proceed to CN1CCN(CCOc2cc(OC3CCOCC3)c3c(Nc4c(Cl)ccc5c4OCO5)ncnc3c2)CC1 [Saracatinib] + NC(=O)Nc1cc(-c2cccc(F)c2)sc1C(=O)N[C@H]1CCCNC1 [AZD7762] (partner 0.2 µM)
RESULT: 0.874

QUERY: Then CCNC(=O)c1noc(-c2cc(C(C)C)c(O)cc2O)c1-c1ccc(CN2CCOCC2)cc1 [Luminespib] + C[C@@H](Oc1cc(-c2cnn(C3CCNCC3)c2)cnc1N)c1c(Cl)ccc(F)c1Cl [Crizotinib] (partner 1 µM) ?
RESULT: 0.412

QUERY: Same question for CCNC(=O)c1noc(-c2cc(C(C)C)c(O)cc2O)c1-c1ccc(CN2CCOCC2)cc1 [Luminespib] + COc1cc2c(Oc3ccc(NC(=O)C4(C(=O)Nc5ccc(F)cc5)CC4)cc3F)ccnc2cc1OCCCN1CCOCC1 [Foretinib] (partner 0.25 µM) please.
RESULT: 0.126
